assay: Acute toxicity in CF1 mouse; assay type: organism-based; details: in vivo

- CHEMICAL_STRING: "Cc1ccc(S(=O)(=O)N[C@@H](Cc2ccccc2)C(=O)CCl)cc1"
  UNIT_DESCRIPTOR: "µmol/kg"
  LD50: 210

###

tested on: Mus musculus; assay: Antiinflammatory activity in CF1 mouse assessed as increase in foot weight at 20 mg/kg, ip administered 3 hrs and 30 mins prior to carrageenan-challenge measured after 3 hrs (reference value: 97 +/- 10 mg); assay type: functional; settings: route intraperitoneal

- MOLECULE: "CC(C)C(NC(=O)c1ccccc1)C(=O)OCC#N (centres undefined)"
  Activity [mg]: 82
- MOLECULE: "N#CCOC(=O)C(Cc1ccccc1)NC(=O)OCc1ccccc1 (centres undefined)"
  Activity [mg]: 54
- MOLECULE: "N#CCOC(=O)CCCCCNC(=O)OCc1ccccc1"
  Activity [mg]: 63
- MOLECULE: "C[C@H](NC(=O)c1ccccc1)C(=O)OCC#N"
  Activity [mg]: 56
- MOLECULE: "CC(NC(=O)c1ccccc1)C(=O)OCC#N (centres undefined)"
  Activity [mg]: 87
- MOLECULE: "N#CCOC(=O)[C@H](Cc1ccccc1)NC(=O)[C@H](Cc1ccccc1)NC(=O)OCc1ccccc1"
  Activity [mg]: 61
- MOLECULE: "Cc1ccc(S(=O)(=O)N[C@@H](Cc2ccccc2)C(=O)CCl)cc1"
  Activity [mg]: 31
- MOLECULE: "Cc1ccc(S(=O)(=O)N[C@@H](Cc2ccccc2)C(=O)OCC#N)cc1"
  Activity [mg]: 69
- MOLECULE: "CC(=O)N[C@@H](Cc1ccccc1)C(=O)OCC#N"
  Activity [mg]: 49

The origin of these recorded values is ChEMBL document CHEMBL3244350.
